Would you mind telling me the reported Kd of each entry?
- SUBJECT_OF_TEST: human IL-6 (human, UniProt P05231 30-212)
- Sequence (P05231 30-212 limits assumed): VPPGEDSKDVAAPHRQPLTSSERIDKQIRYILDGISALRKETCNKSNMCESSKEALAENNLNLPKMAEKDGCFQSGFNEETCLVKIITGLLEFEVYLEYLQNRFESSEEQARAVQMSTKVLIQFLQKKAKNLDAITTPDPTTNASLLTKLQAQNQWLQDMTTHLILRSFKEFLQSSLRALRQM
- MEASUREMENT_PROTOCOL: SPR (Biacore), supernatant antibody on Protein A chip, IL-6 flowed, 37 C
Dear colleague, please send the value followed by its unit.

Guide cases for Kd, answers given:
| BINDER | Kd |
| --- | --- |
| anti-IL-6 antibody, heavy chain T65K, G66D / light chain M32L, M50D, N52S, M88Q (antibody, human IgG1, V domains shown, Human IgG1) VH: EVQLVESGGGLVQPGGSLRLSCAASGFTFSPFAMSWVRQAPGKGLEWVAKISPGGSWTYYSDTVKDRFTFSLDTSKSTAYLQMNSLRAEDTAVYYCARQLWGYYALDIWGQGTLVTVSS VL: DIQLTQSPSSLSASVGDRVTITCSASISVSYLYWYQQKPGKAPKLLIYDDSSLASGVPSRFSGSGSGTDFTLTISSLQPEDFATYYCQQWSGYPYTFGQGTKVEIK | 0.356 nM |
| anti-IL-6 antibody, heavy chain WT / light chain M32L, M50D, N52S, M88Q (antibody, human IgG1, V domains shown, Human IgG1) VH: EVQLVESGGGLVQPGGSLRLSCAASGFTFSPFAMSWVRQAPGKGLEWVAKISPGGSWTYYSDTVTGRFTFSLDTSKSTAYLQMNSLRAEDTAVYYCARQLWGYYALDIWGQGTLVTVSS VL: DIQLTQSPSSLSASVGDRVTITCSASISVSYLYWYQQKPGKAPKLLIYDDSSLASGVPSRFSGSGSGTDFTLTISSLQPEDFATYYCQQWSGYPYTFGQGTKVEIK | 0.611 nM |
| anti-IL-6 antibody, heavy chain T65G, G66D / light chain M32L, M50D, N52S, M88Q (antibody, human IgG1, V domains shown, Human IgG1) VH: EVQLVESGGGLVQPGGSLRLSCAASGFTFSPFAMSWVRQAPGKGLEWVAKISPGGSWTYYSDTVGDRFTFSLDTSKSTAYLQMNSLRAEDTAVYYCARQLWGYYALDIWGQGTLVTVSS VL: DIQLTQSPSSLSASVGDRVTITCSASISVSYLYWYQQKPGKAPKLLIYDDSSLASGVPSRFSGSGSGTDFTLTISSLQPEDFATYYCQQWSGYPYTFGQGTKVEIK | 0.311 nM |
| anti-IL-6 antibody, heavy chain S35D, G66D / light chain M32L, M50D, N52S, M88Q (antibody, human IgG1, V domains shown, Human IgG1) VH: EVQLVESGGGLVQPGGSLRLSCAASGFTFSPFAMDWVRQAPGKGLEWVAKISPGGSWTYYSDTVTDRFTFSLDTSKSTAYLQMNSLRAEDTAVYYCARQLWGYYALDIWGQGTLVTVSS VL: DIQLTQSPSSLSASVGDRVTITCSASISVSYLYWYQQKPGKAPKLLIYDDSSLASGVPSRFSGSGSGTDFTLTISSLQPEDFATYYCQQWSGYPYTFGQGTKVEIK | 0.753 nM |
| anti-IL-6 antibody, heavy chain T63V, G66D / light chain M32L, M50D, N52S, M88Q (antibody, human IgG1, V domains shown, Human IgG1) VH: EVQLVESGGGLVQPGGSLRLSCAASGFTFSPFAMSWVRQAPGKGLEWVAKISPGGSWTYYSDVVTDRFTFSLDTSKSTAYLQMNSLRAEDTAVYYCARQLWGYYALDIWGQGTLVTVSS VL: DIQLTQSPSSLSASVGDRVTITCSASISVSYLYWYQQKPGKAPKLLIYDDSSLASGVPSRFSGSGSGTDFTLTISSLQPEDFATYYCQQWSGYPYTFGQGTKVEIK | 0.274 nM |

Value sought for every listed binder: Kd.
1. anti-IL-6 antibody, heavy chain T63A, G66D / light chain M32L, M50D, N52S, M88Q (antibody, human IgG1, V domains shown, Human IgG1) VH: EVQLVESGGGLVQPGGSLRLSCAASGFTFSPFAMSWVRQAPGKGLEWVAKISPGGSWTYYSDAVTDRFTFSLDTSKSTAYLQMNSLRAEDTAVYYCARQLWGYYALDIWGQGTLVTVSS VL: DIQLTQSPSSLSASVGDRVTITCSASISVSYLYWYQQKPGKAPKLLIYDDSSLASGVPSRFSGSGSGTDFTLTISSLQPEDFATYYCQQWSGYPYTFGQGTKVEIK
2. anti-IL-6 antibody, heavy chain T63Q, G66D / light chain M32L, M50D, N52S, M88Q (antibody, human IgG1, V domains shown, Human IgG1) VH: EVQLVESGGGLVQPGGSLRLSCAASGFTFSPFAMSWVRQAPGKGLEWVAKISPGGSWTYYSDQVTDRFTFSLDTSKSTAYLQMNSLRAEDTAVYYCARQLWGYYALDIWGQGTLVTVSS VL: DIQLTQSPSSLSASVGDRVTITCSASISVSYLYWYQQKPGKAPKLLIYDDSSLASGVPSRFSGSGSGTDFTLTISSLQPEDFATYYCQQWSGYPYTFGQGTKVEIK

["0.268 nM", "0.259 nM"]

Value sought for every listed binder: Kd.
1. anti-IL-6 antibody, heavy chain T63E, G66D / light chain M32L, M50D, N52S, M88Q (antibody, human IgG1, V domains shown, Human IgG1) VH: EVQLVESGGGLVQPGGSLRLSCAASGFTFSPFAMSWVRQAPGKGLEWVAKISPGGSWTYYSDEVTDRFTFSLDTSKSTAYLQMNSLRAEDTAVYYCARQLWGYYALDIWGQGTLVTVSS VL: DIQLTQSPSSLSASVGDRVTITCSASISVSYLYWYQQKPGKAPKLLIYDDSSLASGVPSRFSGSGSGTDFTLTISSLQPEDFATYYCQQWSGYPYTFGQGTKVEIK
2. anti-IL-6 antibody, heavy chain T65R, G66D / light chain M32L, M50D, N52S, M88Q (antibody, human IgG1, V domains shown, Human IgG1) VH: EVQLVESGGGLVQPGGSLRLSCAASGFTFSPFAMSWVRQAPGKGLEWVAKISPGGSWTYYSDTVRDRFTFSLDTSKSTAYLQMNSLRAEDTAVYYCARQLWGYYALDIWGQGTLVTVSS VL: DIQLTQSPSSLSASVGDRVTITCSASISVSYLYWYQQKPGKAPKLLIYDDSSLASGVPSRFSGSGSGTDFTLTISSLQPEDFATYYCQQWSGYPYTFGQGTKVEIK

["0.242 nM", "0.327 nM"]

What value of Kd has been reported for the following binder? anti-IL-6 antibody, heavy chain T65L, G66D / light chain M32L, M50D, N52S, M88Q (antibody, human IgG1, V domains shown, Human IgG1) VH: EVQLVESGGGLVQPGGSLRLSCAASGFTFSPFAMSWVRQAPGKGLEWVAKISPGGSWTYYSDTVLDRFTFSLDTSKSTAYLQMNSLRAEDTAVYYCARQLWGYYALDIWGQGTLVTVSS VL: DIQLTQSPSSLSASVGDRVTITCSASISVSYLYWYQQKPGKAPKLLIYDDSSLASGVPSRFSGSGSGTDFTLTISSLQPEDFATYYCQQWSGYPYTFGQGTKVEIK
0.293 nM
